# System: SF-539 CNS
# protocolNotes: NCI tumour cell line growth inhibition, 48 h
TGI by entry:

Example cases with answers are listed next.
molecule	tgt	TGI
CC[C@H](C)[C@H](NC(=O)[C@@]1(O)[C@H](O)[C@]2(CC)C=CCN3CC[C@@]4(c5cc(Br)c(OC)cc5N(C)[C@@H]14)[C@@H]32)C(=O)OC	SF-539 CNS	91.3 µM
CN(C(=O)c1ccc(OCCCC(=O)O)c(Cl)c1Cl)C1CCCC1	SF-539 CNS	> 100 µM
Cc1cccc2c1c(=O)c1c(O)cc(O)cc1n2C	SF-539 CNS	> 100 µM
C=C1C(=O)O[C@H]2[C@H]1CC/C(COC(=O)NCCCCCCCCNC(=O)OC/C1=C/CC[C@@]3(C)O[C@H]3[C@H]3OC(=O)C(=C)[C@@H]3CC1)=C\CC[C@@]1(C)O[C@@H]21	SF-539 CNS	0.599 µM
CC1CN=C(Nc2ccc(F)c(Cl)c2)S1 (centres undefined)	SF-539 CNS	> 100 µM

[Q] Tell me TGI of O=C1CCCc2ccc3c(c21)CC1(Cc2ccccc2C1)C3 when tested on SF-539 CNS.
[A] > 100 µM

[Q] GET TGI where system = SF-539 CNS and item = O=c1cc(-c2ccccc2)[nH]c2cc(Cl)ccc12
[A] 1.99 µM

[Q] Enter recorded TGI with SF-539 CNS for O=C1C2C3C=CC(C2C(=O)N1CN1CCSCC1)C1C2C(=O)N(CN4CCSCC4)C(=O)C2C31 (centres undefined) here.
[A] > 100 µM

* * *

# Test system: KM12 colon
# protocolNotes: NCI tumour cell line growth inhibition, 48 h
observedProperty: TGI (µM)
// units = µM; emit number, no label

[Q] Provide TGI, tested on KM12 colon, for CC1=C([Se]CC(OC(=O)[C@@H](CO)NC(=O)OC(C)(C)C)C(=O)NCCCCCC(=O)OCc2ccccc2)C(=O)c2ccccc2C1=O (some centres undefined) .
[A] 2.9

[Q] Report its TGI with KM12 colon as the test system: O=C1C(S(=O)(=O)c2ccccc2)=C(CS(=O)(=O)c2ccccc2)[C@@H](OCc2ccccc2)[C@@H]1OCc1ccccc1
[A] 27.4

[Q] Jot down TGI (KM12 colon) of CCOP1(=O)C=C(C)C(=C(Cl)Cl)C(C)=C1 (centres undefined) .
[A] 5.11

[Q] Write down the reported TGI (system: KM12 colon) of COc1cccc(-c2c(-c3ccccc3)[nH]c(C)c2C(=O)ONC(=O)c2ccccc2)c1
[A] 32.4

[Q] Write TGI of N/C(=N\S(=O)(=O)c1cc(Cl)c(Oc2ccc([N+](=O)[O-])cc2Cl)c(Cl)c1)Nc1ccc(Cl)cc1 ; system used: KM12 colon
[A] 36.6

* * *

# Tested on: 786-0 renal
# protocolNotes: NCI tumour cell line growth inhibition, 48 h
observedProperty: TGI

Below: 3 molecules and their reported TGI.
> print(dat)
                                   molecule  observed
1  COc1ccc(OC)c2c3c([nH]c12)C(=O)Nc1nc(N)nc(N)c1C3  > 100 µM
2  O=[N+]([O-])c1cccc(N=Nc2c(O)ccc3ccccc23)c1  > 100 µM
3         C/C(=N/Nc1nc(C)cc(=O)[nH]1)C(=O)O  > 100 µM

Now, please, on to the next molecule.
[Q] Write down measured TGI (786-0 renal) for this molecule. CCCCc1c2c(c(C)c3c1C(=O)OC3)Oc1ccccc1O2
[A] > 36.9 µM
